The binders listed here are annotated with their IC50 of IL-33 signaling (HEK-Blue assay).
TARGET SYSTEM: T1, human IL1RAP on the cell surface (human, UniProt Q9NPH3 21-570)
T1 sequence (looked up): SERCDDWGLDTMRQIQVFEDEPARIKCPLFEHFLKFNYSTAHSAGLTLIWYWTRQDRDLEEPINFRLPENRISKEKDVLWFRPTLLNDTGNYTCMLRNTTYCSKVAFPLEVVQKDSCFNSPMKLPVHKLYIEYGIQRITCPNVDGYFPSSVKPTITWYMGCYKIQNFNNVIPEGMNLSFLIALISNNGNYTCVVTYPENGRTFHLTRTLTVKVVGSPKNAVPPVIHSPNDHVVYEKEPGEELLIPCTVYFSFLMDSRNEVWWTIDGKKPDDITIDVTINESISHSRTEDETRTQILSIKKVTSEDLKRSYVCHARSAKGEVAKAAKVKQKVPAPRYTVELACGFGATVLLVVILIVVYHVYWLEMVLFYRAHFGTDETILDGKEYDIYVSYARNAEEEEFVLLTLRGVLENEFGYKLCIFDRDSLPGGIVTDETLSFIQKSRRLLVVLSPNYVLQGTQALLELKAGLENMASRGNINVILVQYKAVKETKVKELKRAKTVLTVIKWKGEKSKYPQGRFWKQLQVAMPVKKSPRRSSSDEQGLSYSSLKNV
ASSAY NAME: cell-based or functional assay
RECORDED ENDPOINT: IC50 of IL-33 signaling (HEK-Blue assay)

BINDER: h48D2 VH2:VL4 (antibody, human IgG1, kappa, L234A L235A, V domains shown, Humanized; also called VL4:VH2) VH: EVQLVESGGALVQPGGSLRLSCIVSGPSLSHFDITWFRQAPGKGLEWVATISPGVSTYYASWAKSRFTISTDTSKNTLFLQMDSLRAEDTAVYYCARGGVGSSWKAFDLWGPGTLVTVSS VL: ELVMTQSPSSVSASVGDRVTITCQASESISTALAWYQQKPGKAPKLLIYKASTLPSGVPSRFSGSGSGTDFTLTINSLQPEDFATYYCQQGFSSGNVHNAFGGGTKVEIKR
RESULT VALUE: 86.4 nM

BINDER: h48D2 VH5:VL4 (antibody, human IgG1, kappa, L234A L235A, V domains shown, Humanized; also called VL4:VH5; humanized 48D2 variant VH5:VL4) VH: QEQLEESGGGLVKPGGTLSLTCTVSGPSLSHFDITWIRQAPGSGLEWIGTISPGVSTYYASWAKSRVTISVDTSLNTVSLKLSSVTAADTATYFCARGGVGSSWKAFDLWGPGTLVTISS VL: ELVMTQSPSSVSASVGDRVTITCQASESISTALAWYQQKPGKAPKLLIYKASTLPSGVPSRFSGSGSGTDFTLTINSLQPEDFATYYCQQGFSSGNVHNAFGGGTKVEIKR
RESULT VALUE: 2 nM

BINDER: h48D2 VH5:VL1 (antibody, human IgG1, kappa, L234A L235A, V domains shown, Humanized; also called VL1:VH5) VH: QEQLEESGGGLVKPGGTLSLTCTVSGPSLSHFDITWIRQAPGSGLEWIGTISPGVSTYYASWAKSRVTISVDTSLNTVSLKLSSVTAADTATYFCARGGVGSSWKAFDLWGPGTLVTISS VL: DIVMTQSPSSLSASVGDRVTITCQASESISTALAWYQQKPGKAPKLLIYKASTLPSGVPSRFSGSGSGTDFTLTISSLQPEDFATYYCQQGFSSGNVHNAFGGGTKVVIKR
RESULT VALUE: 3.14 nM
